Data origin: ChEMBL document CHEMBL1212936

# Test Method Notes: Aqueous solubility of the compound at pH 6.6
# Type: physicochemical
# Test Context: aqueous solution
So basically: solubility at 400 µg/mL or higher? That is Fulfilled. Lower than 400 µg/mL? That is Not fulfilled.

| Compound | Group Label |
| --- | --- |
| O=C(O)c1c(O)c(C2Cc3ccccc32)nc2c(C(F)(F)F)cccc12 (stereo not given) | Fulfilled |
| CC(Cc1nc2c(C(F)(F)F)cccc2c(C(=O)O)c1O)c1ccccc1 (stereo not given) | Fulfilled |
| CCc1cccc2c(C(=O)O)c(O)c(C3(c4ccc(C(F)(F)F)cc4)CC3)nc12 | Not fulfilled |
| O=C(O)c1c(O)c(C2(c3cccc(Cl)c3)CC2)nc2c(C(F)(F)F)cccc12 | Not fulfilled |
| O=C(O)c1c(O)c(C2(c3ccc(Br)cc3)CC2)nc2c(C(F)(F)F)cccc12 | Fulfilled |
| O=C(O)c1c(O)c(C2(c3ccc(C(F)(F)F)cc3)CC2)nc2c(C(F)(F)F)cccc12 | Not fulfilled |
| CC(Cc1ccccc1)c1nc2c(C(F)(F)F)cccc2c(C(=O)O)c1O (stereo not given) | Fulfilled |
| CC(C)(c1ccccc1)c1nc2c(C(F)(F)F)cccc2c(C(=O)O)c1O | Fulfilled |
| O=C(O)c1c(O)c(C2(c3ccccc3)CC2)nc2c(C(O)(C(F)(F)F)C(F)(F)F)cccc12 | Fulfilled |
| O=C(O)c1c(O)c(Cc2ccc(Cl)cc2)nc2c(C(F)(F)F)cccc12 | Fulfilled |
| O=C(O)c1c(O)c(C2(c3ccccc3Cl)CC2)nc2c(C(F)(F)F)cccc12 | Fulfilled |
| CC(C)c1cccc2c(C(=O)O)c(O)c(C3(c4ccccc4)CC3)nc12 | Not fulfilled |
| CCC(c1ccccc1)c1nc2c(C(F)(F)F)cccc2c(C(=O)O)c1O (stereo not given) | Fulfilled |
| CCc1cccc2c(C(=O)O)c(O)c(C3(c4ccc(Cl)cc4)CC3)nc12 | Not fulfilled |
| O=C(O)c1c(O)c(C2(c3cccc(C(F)(F)F)c3)CC2)nc2c(C(F)(F)F)cccc12 | Fulfilled |
